Here the recorded selectivity ratio is given for each entry.
# METHOD_DESCRIPTION: Selectivity index, ratio of IC50 for CHO cells to IC50 for chloroquine-sensitive Plasmodium falciparum NF54
# Type: toxicity
# EXPERIMENTAL_CONDITIONS: hamster, read-out: Ratio IC50
Give the figure by itself; no unit, no explanation.

CC(=O)O[C@H]1C[C@@]2(C)[C@@H](C[C@@H](O)[C@H]3[C@@]4(C)CC[C@@H](O)[C@@H](C)[C@@H]4CC[C@@]32C)/C1=C(\CCC=C(C)C)C(=O)Oc1ccc(F)cc1 | 27
CC(=O)O[C@H]1C[C@@]2(C)[C@@H](C[C@@H](O)[C@H]3[C@@]4(C)CC[C@@H](O)[C@@H](C)[C@@H]4CC[C@@]32C)/C1=C(\CCC=C(C)C)C(=O)Oc1cccc(Br)c1 | 38

Kindly review the next compound as well.
Ask | Query: selectivity ratio; subject: CCOC(=O)/C(CCC=C(C)C)=C1\[C@@H](OC(C)=O)C[C@@]2(C)[C@H]1C[C@@H](O)[C@H]1[C@@]3(C)CC[C@@H](O)[C@@H](C)[C@@H]3CC[C@@]12C
Reply | 19

Recorded values, source ChEMBL document CHEMBL4041542.
